Tested on: SF-295
assay method text: NCI tumour cell line growth inhibition, 48 h
Active and inactive are the calls of the source. Cut-off read from the data, not from the text of the source: active = GI50 up to about 1.1 µM and inactive = higher.
Here, each record is paired with measured GI50 data.

Known results for compounds:
### Prompt What value of GI50 on SF-295 does "C=CC(C)(C)N[C@@H](C(=O)N1CCC[C@H]1c1nc(-c2nc(C(=O)OCC=C(C)C)c(C)o2)c(C)o1)C(C)C" have?
### Response 20.1 µM (inactive)

### Prompt Request: COc1cc(/C=C2/SC(c3ccccc3)N(c3ccccc3)C2=O)cc(OC)c1OC (stereo unspecified)
### Response 27 µM (inactive)

### Prompt Then "N#Cc1cc(C#N)c(N)nc1N" ?
### Response > 100 µM (inactive)

### Prompt Item: "Cc1cccc(NC(=O)/C=C/c2ccc([N+](=O)[O-])cc2)c1"
### Response 29 µM (inactive)

### Prompt Try this compound too: "Oc1ccc2c(c1)-c1c(c3ccccc3n1CCN1CCOCC1)CC2"
### Response 48.3 µM (inactive)

Turning to the following compound.
### Prompt Request: GI50, test system SF-295, entry "O=C(CSc1n[nH]c(=O)[nH]c1=O)NNC(=O)c1cccc2nc3ccccc3nc12"
### Response 59.3 µM (inactive)
